# System: Short transient receptor potential channel 6 (Mus musculus)
# Protocol description: mouse TRPC6 channel inhibitors, primary screen, cell-based, HEK293, membrane potential dye (AID 2553)
# Recorded conditions: ACh-evoked depolarization, at 10 µM
Screen size: about 310,000 compounds; about 3,300 (1.1%) were called active.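 How the source made its calls: active means B-score under library mean minus 3 SD, initial fluorescence not abnormally high, positive integrated signal ratio; inactive means the rest.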 Only a selection was taken, and actives are over-represented in it overall.
Bench note: report the call from active, inactive

Q) Fill in: this test's call for CC(C)NC(=O)COCc1cc(-c2ccc3c(c2)OCO3)on1 is ___
A) inactive

Q) Assay result, entry CCOC(=O)N1CCN(C(=O)c2ccc3c(c2)N(Cc2ccc(C)cc2)CCS3)CC1 — outcome?
A) active

Q) For Cc1c(C(=O)c2cccc([N+](=O)[O-])c2)c2ccccn2c1CCC#N , which call appears in the assay record?
A) inactive

Q) Hello, I am checking results. What call was entered for O=C(Nc1ccccc1[N+](=O)[O-])C1C(c2ccccc2)=C1c1ccccc1 ?
A) inactive

Q) How did this test come out for c1ccc(-c2cnc(CN3CCN(c4ccccc4)CC3)o2)cc1 ?
A) inactive

----------
# System: Short transient receptor potential channel 6 (Mus musculus)
# Protocol description: mouse TRPC6 channel inhibitors, primary screen, cell-based, HEK293, membrane potential dye (AID 2553);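 on B-score: B-score derived from integrated fluorescence ratio over the kinetic read; more negative B-score means stronger inhibition of depolarization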
# Recorded conditions: ACh-evoked depolarization, at 10 µM; active compounds read low
Among all 310,000 compounds or so, about 3,300 (1.1%) were called active. Shown is part of a subset that was picked to be rich in actives.
Test readout: B-score

// below: answered molecules
Molecule | System | B-score
COc1ccc(C(=O)C2CCCN(C(=O)c3cc(C)on3)C2)cc1F (stereo not drawn) | Short transient receptor potential channel 6 (Mus musculus) | inactive
CC(Nc1nc(N2CCOCC2)nc2ccccc12)c1ccccc1 (stereo not drawn) | Short transient receptor potential channel 6 (Mus musculus) | inactive
O=C(NCCCN1CCCCC1)C1CCCN(c2ncnc3c2nc2n3CCCCC2)C1 (stereo not drawn) | Short transient receptor potential channel 6 (Mus musculus) | inactive
Cc1ccc(S(=O)(=O)N(Cc2ccccc2)c2ccccn2)cc1[N+](=O)[O-] | Short transient receptor potential channel 6 (Mus musculus) | inactive
Cc1nc(-c2ccc(F)cc2)c(CC(=O)Nc2cccc(S(=O)(=O)N3CCOCC3)c2)s1 | Short transient receptor potential channel 6 (Mus musculus) | inactive
COc1ccc(NC(=O)CN2C(=O)C(c3ccccc3)=NC23CCCCCC3)cc1OC | Short transient receptor potential channel 6 (Mus musculus) | inactive

Q) I would be grateful if you could share the reported B-score for CCCC(=O)C1CCN(Cc2ccccc2)CC1 .
A) inactive

Q) Consider the molecule COc1nc(N=C(N)N)nc2c(C)cccc12 and give its measured B-score.
A) inactive

Q) GET /values?readout=B-score&item= C=C(C)c1cccc(C(C)(C)NC(=O)NCCN(CC)CC)c1
A) -8.39 (active)

Q) Query: B-score; subject: Cc1cc2c(cc1S(=O)(=O)CCC(=O)NCc1ccccc1)OCC(=O)N2
A) inactive

----------
# System: Short transient receptor potential channel 6 (Mus musculus) (UniProt Q61143)
# Sequence (Q61143 whole entry, looked up): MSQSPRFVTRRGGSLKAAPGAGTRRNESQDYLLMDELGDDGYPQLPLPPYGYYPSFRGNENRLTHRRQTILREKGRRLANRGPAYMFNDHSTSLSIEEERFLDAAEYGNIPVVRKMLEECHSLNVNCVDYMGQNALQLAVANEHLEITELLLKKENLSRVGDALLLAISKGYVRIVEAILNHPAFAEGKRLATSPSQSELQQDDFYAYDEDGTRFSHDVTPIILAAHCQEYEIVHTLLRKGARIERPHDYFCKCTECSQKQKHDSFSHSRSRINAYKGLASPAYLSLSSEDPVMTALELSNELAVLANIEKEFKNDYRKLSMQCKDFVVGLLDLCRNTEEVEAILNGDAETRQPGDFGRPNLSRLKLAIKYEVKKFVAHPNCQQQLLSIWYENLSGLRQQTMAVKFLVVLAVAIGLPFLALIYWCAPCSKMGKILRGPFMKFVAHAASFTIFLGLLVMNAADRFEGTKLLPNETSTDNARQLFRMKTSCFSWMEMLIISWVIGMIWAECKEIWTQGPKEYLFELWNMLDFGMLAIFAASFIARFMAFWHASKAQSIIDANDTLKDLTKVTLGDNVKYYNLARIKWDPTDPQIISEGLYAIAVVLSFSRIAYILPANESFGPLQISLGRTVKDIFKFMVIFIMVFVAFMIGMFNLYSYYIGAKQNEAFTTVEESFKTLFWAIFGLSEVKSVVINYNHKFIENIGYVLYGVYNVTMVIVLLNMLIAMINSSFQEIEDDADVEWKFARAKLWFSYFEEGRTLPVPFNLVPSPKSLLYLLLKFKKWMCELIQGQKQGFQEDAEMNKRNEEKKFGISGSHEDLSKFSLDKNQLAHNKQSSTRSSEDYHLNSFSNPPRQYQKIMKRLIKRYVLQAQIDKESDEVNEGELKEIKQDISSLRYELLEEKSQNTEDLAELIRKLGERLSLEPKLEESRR
# Protocol description: mouse TRPC6 channel inhibitors, primary screen, cell-based, HEK293, membrane potential dye (AID 2553)
# Recorded conditions: ACh-evoked depolarization, at 10 µM
Hit rate of the full screen: of about 310,000 compounds, about 3,300 (1.1%) were called active.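 How the source made its calls: active means B-score under library mean minus 3 SD, initial fluorescence not abnormally high, positive integrated signal ratio; inactive means the rest.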 The list comes from a sample in which actives are over-represented; it also holds close analogues and randomly drawn compounds.
Give one outcome, nothing more. List: active, inactive

Previously resolved entries follow.
Compound | Group label
O=C(CN1C(=O)CSC1=O)N1CCCC(Nc2ccc(F)cc2)C1 (stereo not drawn) | inactive
COc1ccc(Br)cc1/C=N/Nc1ccc(Cl)c(C(=O)O)c1 | inactive

Switching to the query record.
Q) Could you kindly confirm the outcome this assay logged for CCN1CCN(c2ccc([N+](=O)[O-])cc2C(=O)c2ccc(Cl)cc2)CC1 ?
A) active
